System Name: T1, native human MET on living human cells (human, UniProt P08581 25-1390)
T1 construct: whole, on cells; also called Human cells (A549); HPAF-II
T1 sequence (P08581 25-1390): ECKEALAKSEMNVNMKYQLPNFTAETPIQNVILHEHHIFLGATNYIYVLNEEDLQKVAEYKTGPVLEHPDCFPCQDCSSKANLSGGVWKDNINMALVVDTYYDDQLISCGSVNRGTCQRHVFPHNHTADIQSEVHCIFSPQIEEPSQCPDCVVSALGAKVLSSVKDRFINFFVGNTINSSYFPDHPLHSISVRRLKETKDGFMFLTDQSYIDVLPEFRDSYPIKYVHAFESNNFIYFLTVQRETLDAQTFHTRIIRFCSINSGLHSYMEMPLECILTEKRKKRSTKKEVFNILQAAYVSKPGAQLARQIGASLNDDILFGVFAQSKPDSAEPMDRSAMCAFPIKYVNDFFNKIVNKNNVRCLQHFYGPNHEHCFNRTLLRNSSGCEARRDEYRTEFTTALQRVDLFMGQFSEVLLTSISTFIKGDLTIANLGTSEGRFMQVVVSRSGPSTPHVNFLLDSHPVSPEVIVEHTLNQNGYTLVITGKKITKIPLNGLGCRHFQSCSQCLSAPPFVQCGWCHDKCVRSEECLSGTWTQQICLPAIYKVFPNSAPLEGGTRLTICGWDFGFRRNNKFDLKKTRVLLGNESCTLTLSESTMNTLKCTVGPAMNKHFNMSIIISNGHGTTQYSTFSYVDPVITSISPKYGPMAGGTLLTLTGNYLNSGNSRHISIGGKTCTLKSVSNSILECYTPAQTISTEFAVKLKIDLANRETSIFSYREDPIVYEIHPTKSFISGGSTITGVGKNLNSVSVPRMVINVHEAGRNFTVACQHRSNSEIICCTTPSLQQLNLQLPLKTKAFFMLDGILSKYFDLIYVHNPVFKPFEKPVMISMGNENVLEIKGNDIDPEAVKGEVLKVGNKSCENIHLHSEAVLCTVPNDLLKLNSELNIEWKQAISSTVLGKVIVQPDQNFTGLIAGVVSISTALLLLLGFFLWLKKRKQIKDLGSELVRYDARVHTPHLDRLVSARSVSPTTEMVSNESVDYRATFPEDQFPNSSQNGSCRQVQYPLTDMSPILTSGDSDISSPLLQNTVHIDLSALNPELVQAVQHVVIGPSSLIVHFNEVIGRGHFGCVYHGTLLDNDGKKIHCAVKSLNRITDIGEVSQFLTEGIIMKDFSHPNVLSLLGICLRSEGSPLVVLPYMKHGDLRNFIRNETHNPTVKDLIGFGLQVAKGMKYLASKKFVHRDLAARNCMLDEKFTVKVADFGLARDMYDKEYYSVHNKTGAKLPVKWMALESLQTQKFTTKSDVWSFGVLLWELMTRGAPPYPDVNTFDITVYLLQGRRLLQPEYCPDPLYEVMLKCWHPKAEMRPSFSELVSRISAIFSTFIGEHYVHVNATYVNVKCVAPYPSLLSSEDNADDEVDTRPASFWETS
Test Details: flow cytometry, A549 cells

{"columns": ["Binder", "Unit Of Measure", "EMAX (% relative to control)"],
 "data": [
  ["chimeric llama-human IgG1 mAb 71A3 (antibody, V domains shown) VH: EVQLVESGGGLVQPGGSLRLSCAASGFSFKDYDITWVRQAPGKGLEWVSTITSRSGSTSYVDSVKGRFTISGDNAKNTLYLQMNSLKPEDTAVYYCAKVYATTWDVGPLGYGMDYWGKGTLVTVSS VL: SYELTQPSALSVTLGQTAKITCQGGSLGSSYAHWYQQKPGQAPVLVIYDDDSRPSGIPERFSGSSSGGTATLTISGAQAEDEGDYYCQSADSSGNAAVFGGGTHLTVL", "%", 161]
]}
